system: HOP-62; test: NCI tumour cell line growth inhibition, 48 h
Activity calls are given as the source filed them. Cut-off read from the data, not from the text of the source: active = GI50 up to about 1.1 µM and inactive = higher.
Assignment: determine reported GI50 for the given molecules.

// known answers, use as guide
C=C(CCOC)CCC1CCCCC(=C)[C@H]1O (stereo partly specified) : > 100 µM (inactive)
O=C1c2ccccc2N2OC3(N4CCOCC4)CCCC3C12c1ccccc1 (stereo unspecified) : > 100 µM (inactive)
O/N=N\c1nc(-c2ccccn2)nc2ccccc12 : 1.98 µM (inactive)
O=Cc1ccc2c(c1)CC1(C2)Cc2ccc3c(c2C1)CCC3 (stereo unspecified) : 9.4 µM (inactive)
Nc1nc2c(ncn2Cc2ccccc2CCO)c(=O)[nH]1 : > 100 µM (inactive)
O=C1NC2(CCCCC2)N=C2C(Cl)CCCC12Cl (stereo unspecified) : > 100 µM (inactive)
CN1CCN(P2(=S)Oc3ccc4ccccc4c3-c3c(ccc4ccccc34)O2)CC1 : 26.3 µM (inactive)
CCCCN1CCC(O)(c2cc(C(=O)O)[nH]c2-c2cc(C)no2)C1=O (stereo unspecified) : > 100 µM (inactive)

Give measured GI50 for every item shown.
1. O=S1(=O)OCCOS(=O)(=O)C1Cc1ccccc1
2. CCOC(=O)CNC(=O)C(CSC(=O)N(O)c1ccc(Cl)cc1)NC(=O)CCC(N)C(=O)OCC (stereo unspecified)
3. CCOC(=O)C1=NN(c2ccc([N+](=O)[O-])cc2)[C@@]2(C)C[C@]3(c4ccccc4)N(c4ccc([N+](=O)[O-])cc4)N=C(C(=O)OCC)N3c3ccccc3N12
4. NC1=NN(c2ccccc2)C(=O)C1C(=O)C(=O)Nc1nccs1 (stereo unspecified)
5. Cc1n[nH]/c(=N\S(=O)(=O)c2ccc(/N=N/c3c(O)c(C(=O)O)cc4ccccc34)cc2)s1

52.8 µM (inactive)
24.3 µM (inactive)
> 100 µM (inactive)
> 100 µM (inactive)
> 100 µM (inactive)

Give measured GI50 for every item shown.
1. CCOC(=O)CNC1=Nc2ccccc2C(=O)N2CSCC12 (stereo unspecified)
2. Oc1nc2cc(Cl)ccc2nc1/C(=N\Nc1ccccc1)C(O)c1ccc(Cl)c(Cl)c1 (stereo unspecified)
3. Clc1ccc(COC(Cn2ccnc2)c2ccc(Cl)cc2Cl)cc1 (stereo unspecified)

> 100 µM (inactive)
> 100 µM (inactive)
12.9 µM (inactive)

Value source: ChEMBL document CHEMBL1201862
